These data points were gathered from patent US8318949B2.

ENDPOINT: melting point

Some entries whose results are on file:
COMPOUND	melting point
Cc1nc(N2CCN(CCCC(F)(F)F)C2=O)sc1C(=O)NCc1cccnc1 [Example 12.3]	167 to 169 °C
Cc1nc(-n2cnn(CC3CC3(F)F)c2=O)sc1C(=O)NCc1cccnc1 (centres unmarked) [Example 15]	160 to 161 °C
Cc1nc(N2CCN(Cc3ccccc3)C2=O)sc1C(N)=O [Example 10]	217 to 218 °C

input: What value of measured melting point is listed for Cc1nc(N2CCN(CC(C)C)C2=O)sc1C(N)=O [Example 1.6] ?
output: 212 to 215 °C

input: Endpoint output: melting point of Cc1nc(-n2cnn(CC3CC3)c2=O)sc1C(=O)NCc1ccccn1 [Example 14.3] . Value?
output: 160 to 161 °C

====

Consider the following compounds and their measured melting point readings.

COMPOUND	melting point
Cc1nc(N2CCN(Cc3ccc(C(F)(F)F)cc3)C2=O)sc1C(N)=O [Example 1.2]	216 to 217 °C
Cc1nc(N2CCN(Cc3ccc(F)cc3)C2=O)sc1-c1nn[nH]n1 [Example 18.1]	145 to 149 °C
Cc1nc(-n2cnn(CC3CC3)c2=O)sc1C(=O)NCc1cc[nH]n1 [Example 14.1]	167 to 168 °C
Cc1nc(N2C(=O)N(Cc3ccc(F)cc3)C[C@@H]2C)sc1C(N)=O [Example 1.12]	197 to 198 °C
Cc1nc(N2CCN(Cc3ccc(F)cc3)C2=O)sc1C(=O)NCc1cocn1 [Example 12.16]	188 to 191 °C
COc1ccc(CN2CCN(c3nc(C)c(C(N)=O)s3)C2=O)cc1F [Example 1.11]	182 to 184 °C
Cc1nc(N2C[C@@H](C)N(Cc3ccc(C(F)(F)F)cc3)C2=O)sc1C(N)=O [Example 1.16]	110 to 112 °C
Cc1nc(N2CCN(CC3CC3)C2=O)sc1C(=O)NCc1ncccn1 [Example 12.11]	218 to 220 °C

Now look at this one.
input: May I ask what melting point has been recorded for Cc1nnc(-c2sc(N3CCN(Cc4ccc(F)cc4)C3=O)nc2C)[nH]1 [Example 3.1] ?
output: 248 to 249 °C

====

compounds and their reported melting point

input: Quick one: melting point of Cc1nc(-n2cnn(Cc3ccc(F)cc3)c2=O)sc1C(N)=O [Example 1] ?
output: 232 to 233 °C

input: For the compound shown here, Cc1nc(N2CCN(Cc3ccc(F)c(F)c3)C2=O)sc1C(N)=O [Example 1.7] , give the reported melting point.
output: 221 to 223 °C

====

ENDPOINT: melting point

// worked examples, melting point included
SMI	melting point
Cc1nc(N2CCN(CCCC(F)(F)F)C2=O)sc1C(=O)NCc1ccncc1	178 to 181 °C
Cc1nc(N2CCN(CC3CC3)C2=O)sc1C(=O)NCc1ccncn1	188 to 191 °C
Cc1cc(CNC(=O)c2sc(N3C(=O)N(Cc4ccc(F)cc4)C[C@@H]3C)nc2C)no1	174 to 175 °C

input: Field request: melting point | item: Cc1nc(N2C(=O)N(Cc3ccc(F)cc3)C[C@@H]2C)sc1C(=O)NCc1cnn(C)c1
output: 176 to 177 °C

====

- TARGET UNDER TEST: stearoyl-CoA desaturase (SCD1) (Mus musculus)
- Construct: Male ICR outbread mice, on a high-carbohydrate, low fat diet; from tissue; host or cells: liver microsomes of male ICR mice on a high-carbohydrate, low fat diet
- Sequence (P13516 1-355): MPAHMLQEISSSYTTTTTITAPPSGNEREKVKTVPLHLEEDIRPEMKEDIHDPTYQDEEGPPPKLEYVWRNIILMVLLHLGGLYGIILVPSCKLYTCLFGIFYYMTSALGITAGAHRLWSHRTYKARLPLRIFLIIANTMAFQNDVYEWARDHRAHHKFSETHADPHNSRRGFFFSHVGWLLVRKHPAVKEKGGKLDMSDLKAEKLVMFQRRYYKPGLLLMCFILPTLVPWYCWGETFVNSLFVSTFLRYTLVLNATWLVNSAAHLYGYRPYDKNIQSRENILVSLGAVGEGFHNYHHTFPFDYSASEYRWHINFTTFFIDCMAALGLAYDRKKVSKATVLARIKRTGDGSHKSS
- EXPERIMENTAL DETAILS: Stearoyl-CoA desaturase inhibition, mouse liver microsomes (release of 3H2O from [9,10-3H]stearoyl-CoA)
- Format: biochemical
- STUDY CONDITIONS: 15 min incubation, 25° C., read-out: Microsomal IC50
pIC50: −log10 of the molar value.
ENDPOINT: pIC50

The following molecules have reported results that may help.
MOLECULE	pIC50
Cc1cc(CNC(=O)c2sc(N3CCN(CC4CC4)C3=O)nc2C)no1	7.96
Cc1nc(N2CCN(Cc3ccc(C(F)(F)F)cc3)C2=O)sc1C(=O)NCc1ccc2nccn2c1	6.15
Cc1nc(-n2cnn(CC3CC3(F)F)c2=O)sc1C(=O)NCc1cncs1 (stereo not shown)	7.74

1: Cc1nc(N2C[C@@H](C)N(Cc3ccc(F)cc3)C2=O)sc1C(=O)NCc1cccnc1
2: Cc1nc(N2CCN(Cc3ccc(S(C)(=O)=O)cc3)C2=O)sc1C(N)=O
3: Cc1nc(-n2cnn(C(C)c3ccccc3)c2=O)sc1C(=O)NCc1cncs1 (stereo not shown)
4: Cc1nc(N2CCN(CC(C)C)C2=O)sc1C(=O)NCc1cccnc1
5: Cc1nc(-n2cnn(Cc3cc(F)cc(F)c3)c2=O)sc1C(=O)NCc1ccccn1
input: Kindly order the items shown according to pIC50, from the highest value down. Your task in answering is to list the labels in the requested order.
output: 3, 5, 1, 4, 2
(3: 8.10, 5: 7.89, 1: 7.44, 4: 6.81, 2: 6.28)

A: Cc1nc(N2CCN(C(C)c3ccccc3)C2=O)sc1C(=O)NCc1cncs1 (stereo not shown)
B: Cc1nc(-n2cnn(CC3CC3(F)F)c2=O)sc1C(=O)NCc1cnn(C)c1 (stereo not shown)
input: Form: Entry with minimum pIC50 (choose one): A / B Answer by quoting the chosen item's label.
output: B

====

melting point values, listed per item

MOLECULE	melting point
Cc1cc(CNC(=O)c2sc(N3C[C@@H](C)N(Cc4ccc(F)cc4)C3=O)nc2C)[nH]n1	215 to 216 °C
Cc1nc(N2C[C@@H](C)N(Cc3cc(F)cc(F)c3)C2=O)sc1C(N)=O	212 to 213 °C
Cc1nc(N2C[C@@H](C)N(Cc3ccc(C(F)(F)F)cc3)C2=O)sc1C(=O)NCc1ccccn1	136 to 137 °C
Cc1cc(-c2sc(N3CCN(Cc4ccc(F)cc4)C3=O)nc2C)n[nH]1	218 to 221 °C
Cc1nc(N2CCN(CC3CC3)C2=O)sc1C(=O)NCc1cccnn1	187 to 189 °C
Cc1cc(-c2sc(N3CCN(CC4CC4)C3=O)nc2C)n[nH]1	231 to 233 °C

input: Entry Cc1cc(CNC(=O)c2sc(-n3cnn(Cc4ccc(F)cc4)c3=O)nc2C)[nH]n1 has what melting point?
output: 234 to 235 °C

input: Given the entry Cc1nc(N2CCN(CC(C)C)C2=O)sc1C(=O)NCc1cnn(C)c1 , report its measured melting point.
output: 155 to 158 °C

input: Which melting point reading was recorded for the molecule Cc1nnc(-c2sc(N3CCN(Cc4ccccc4)C3=O)nc2C)[nH]1 ?
output: 284 to 287 °C

input: Using the record for Cc1nc(-n2cnn(Cc3ccc(F)cc3)c2=O)sc1C(=O)NCc1cccc(N(C)C)c1 , report its melting point.
output: 149 to 151 °C

input: Any idea what its melting point is? The molecule is Cc1nc(N2CCN(CCCC(F)(F)F)C2=O)sc1-c1cc[nH]n1
output: 185 to 186 °C

input: Field request: melting point | item: Cc1nc(N2C(=O)N(Cc3ccc(F)cc3)C[C@@H]2C)sc1C(=O)NCc1ccccn1
output: 112 to 113 °C

input: Could you share which melting point value was measured for Cc1nc(N2CCN(CC3CC3(F)F)C2=O)sc1C(=O)NCc1cncs1 (centres unmarked) ?
output: 182 to 184 °C

====

# melting point values compiled below

See these solved cases before continuing.
MOLECULE	melting point
Cc1nc(-n2cnn(Cc3ccc(F)cc3)c2=O)sc1C(=O)NCc1csc(C(C)C)n1	151 to 153 °C
Cc1nc(N2CCN(Cc3ccc(F)cc3)C2=O)sc1-c1cc[nH]n1	239 to 242 °C
Cc1ncc(CNC(=O)c2sc(N3CCN(CC4CC4)C3=O)nc2C)s1	165 to 167 °C

input: Item under review: Cc1nc(N2CCN(Cc3cccc(C(F)(F)F)c3)C2=O)sc1-c1cc[nH]n1 . Reported melting point?
output: 209 to 214 °C

input: Requested read-out: melting point. Entry: Cc1nc(N2CCN(CC3CC3(F)F)C2=O)sc1C(=O)NCc1ncco1 (centres unmarked)
output: 156 to 158 °C

input: Return reported melting point; argument: Cc1nc(N2CCN(Cc3ccc(Cl)cc3)C2=O)sc1C(N)=O
output: > 200 °C

input: Returns the measured melting point for the input molecule. Input: Cc1nnc(-c2sc(N3CCN(Cc4ccc(C(F)(F)F)cc4)C3=O)nc2C)[nH]1
output: 273 to 274 °C

input: For Cc1nc(N2C[C@@H](C)N(Cc3ccc(F)cc3)C2=O)sc1C(=O)NCc1ccccn1 , what is its reported melting point?
output: 118 to 119 °C
